B1: TPR t1 (parent)
chain: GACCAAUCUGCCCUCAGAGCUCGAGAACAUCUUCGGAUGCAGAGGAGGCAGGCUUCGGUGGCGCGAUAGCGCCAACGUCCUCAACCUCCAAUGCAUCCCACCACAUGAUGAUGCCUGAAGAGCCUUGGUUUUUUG

# Variants of: B1
# Assay Comment: polymerase ribozyme fitness, log enrichment relative to wild type (log ratio); higher = more active; in vitro selection for triplet polymerase activity
polymerase ribozyme fitness (log ratio) values, listed per item

Study these solved cases before continuing.
C12U C64U C98U    -0.396
G23A A26G    -4.52
A6U C15A G51C G71U C124U    -5.41
G52A G69C C72U A95C    -1.66
C56G A68G C73U A95G    -3.3
G39A G69U U96A C104A G113A U126C    -3.63

Data request: GET /values?readout=polymerase ribozyme fitness (log ratio)&item= G51U C73A G117A
Data returned: -4.4
